composite z-score: recorded values
testSystem: Alpha-bungarotoxin (Bungarus multicinctus) (UniProt P60615)
Sequence (P60615 whole entry, looked up): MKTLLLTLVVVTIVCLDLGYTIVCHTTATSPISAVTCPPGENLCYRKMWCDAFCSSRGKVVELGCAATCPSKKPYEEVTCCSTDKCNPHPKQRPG
assaySummary: alpha-bungarotoxin binders on microarray, profiling panel, artefact control for SMM control protein annotation, biochemical, small-molecule microarray, Alexa647 label, 635/667 nm fluorescence (AID 1117)
setupConditions: alpha-BTX-A647 binding fluorescence, higher = more signal
Answer with the value's number alone.

Known results for compounds:
compound	composite z-score
CC1CC/C=C\[C@H]2OC34C=CCN(CCN5CCOCC5)C(=O)[C@H]3N(C(C)CO)C(=O)[C@@H]4C2C(=O)O1 (some centres undefined)	-0.807
COCCOC(=O)N1C(=O)[C@@]2(c3cc(C#CCC(C(=O)OC)C(=O)OC)ccc31)[C@H](c1ccc(OCCO)cc1)N1[C@H](c3ccccc3)[C@H](c3ccccc3)OC(=O)[C@H]1[C@@H]2C(=O)Nc1nc2ccccc2s1	1.06
Cc1ccccc1C(O)C1C=CC2C(=O)N(c3ccccc3)C(=O)C2N1Nc1ccc([N+](=O)[O-])cc1 (centres undefined)	0.625

GET /value?item= [N-]=[N+]=NCc1ccccc1[C@H]1OC(c2ccc(OCCCO)cc2)=N[C@@]1(CCS(=O)(=O)c1ccccc1)C(=O)NCc1ccccc1 &field=composite z-score returns 2.15

----------
z-score: recorded values
assaySummary: A549 lung cancer cell viability effects, profiling panel, resazurin fluorescence, 24 h, PK04 Diversity Set (AID 1171); further: test concentration not given here
setupConditions: higher = more signal, called active from +8 up or from −8 down
Answer with the value's number alone.

smilesRecord	numericReadout
CCOC(=O)C1=C[C@@H](c2ccccc2)N(S(=O)(=O)c2ccc(C)cc2)[C@H]1c1ccccc1	0.537
COC(=O)[C@@]1(Cc2ccccc2)[C@H]2c3cc(C(=O)N4CCCC4)n(CCSCCO)c3C[C@H]2CN1C(=O)c1ccccc1	-0.845

GET /value?item= CCOC(=O)C1=CC[C@@H](c2ccccc2)N(S(=O)(=O)c2ccc(C)cc2)[C@H]1c1cccc(OC)c1 &field=z-score returns 0.776

GET /value?item= COCCOC(=O)N1C(=O)[C@@]2(c3cc(C#CC4=CCCCC4)ccc31)[C@H](c1ccc(O)cc1)N1[C@H](c3ccccc3)[C@H](c3ccccc3)OC(=O)[C@H]1[C@@H]2C(=O)NC[C@H](O)c1ccccc1 &field=z-score returns -2.06

GET /value?item= COCCOC(=O)N1C(=O)[C@@]2(c3cc(C#CCC(C(=O)OC)C(=O)OC)ccc31)[C@H](C(=O)NC[C@H](O)c1ccccc1)[C@H]1C(=O)O[C@H](c3ccccc3)[C@H](c3ccccc3)N1[C@@H]2c1ccc(OCCO)cc1 &field=z-score returns -0.873

GET /value?item= C[C@]1(C(=O)NCC(F)(F)F)c2ccccc2C(=O)N(Cc2ccccc2)[C@H]1c1ccc(CO)cc1 &field=z-score returns 0.0906

----------
testSystem: Concanavalin-A (Canavalia ensiformis) (UniProt P02866)
Sequence (P02866 whole entry, looked up): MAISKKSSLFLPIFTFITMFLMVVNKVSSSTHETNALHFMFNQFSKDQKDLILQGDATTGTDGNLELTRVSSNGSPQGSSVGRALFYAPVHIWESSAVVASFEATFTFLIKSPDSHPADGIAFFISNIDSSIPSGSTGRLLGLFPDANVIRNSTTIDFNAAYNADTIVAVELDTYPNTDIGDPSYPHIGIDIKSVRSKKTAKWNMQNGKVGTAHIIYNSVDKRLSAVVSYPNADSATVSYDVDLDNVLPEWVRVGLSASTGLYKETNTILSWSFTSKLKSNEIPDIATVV
assaySummary: ConA small-molecule binders, primary screen, artefact control for SMM control protein annotation, biochemical, small-molecule microarray, Alexa647 label, 635 nm (AID 1127);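 further: z combines 667 nm emission intensity with signal-to-noise across three replicate slides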
setupConditions: ConA-A647 binding fluorescence, higher = more signal
Give met when the value for composite z-score is at least 0.7. Give not met when it is less.

compound	categoryLabel
COc1cc(NN2C(C(O)C3CCCCC3)C=CC3C(=O)N(C)C(=O)C32)cc(OC)c1OC (centres undefined)	met
CC(C)(C)OC(=O)CC[C@]1(C(=O)N2CCCCC2)COC(c2ccc(OCCCO)cc2)=N1	met
C=C[C@@H](OC)[C@H](OC(=O)Nc1ccc(SC)cc1)c1ccc(OCCO)cc1	met
Cc1ccc(S[C@]2(C(=O)NC(C)C)CC(=O)N(Cc3ccccc3Cl)[C@@H]2c2ccc(CO)cc2)cc1	not met
C=C(COC)/C(=C/C[C@@H](OC(C)=O)c1ccc(CO)o1)c1cc(C(=O)OC)ccc1OC	not met

Task: Kindly determine if composite z-score recorded for CCOC(=O)C1=C[C@@H](C(C)(C)C)N(S(=O)(=O)c2ccc(C)cc2)[C@H]1c1ccccc1 is above or exactly 0.7.
Result: met

Task: Kindly determine if composite z-score recorded for CC(C)[Si]1(C(C)C)OCc2cc(-c3ccc(-c4ccc(Cl)c(Cl)c4)o3)nc(CCc3ccccc3)c21 is above or exactly 0.7.
Result: not met

Task: Kindly determine if composite z-score recorded for [N-]=[N+]=Nc1ccccc1C[C@]1(C(=O)NCc2ccccc2)COC(c2ccc(OCCCO)cc2)=N1 is above or exactly 0.7.
Result: met

Task: Kindly determine if composite z-score recorded for CC(C)=CCCC(C)=CC(O)C1C=CC2C(=O)N(c3ccccc3)C(=O)C2N1Nc1ccccc1F (centres undefined) is above or exactly 0.7.
Result: met

Task: Kindly determine if composite z-score recorded for C#C[C@@H](CC)O[Si](C#CCCCC#N)(C(C)C)C(C)C is above or exactly 0.7.
Result: not met

Task: Kindly determine if composite z-score recorded for COCCCNC(=O)[C@@]1(c2ccc([N+](=O)[O-])cc2)CC(=O)N(C(C)C)[C@@H]1c1ccc(CO)cc1 is above or exactly 0.7.
Result: not met

Task: Kindly determine if composite z-score recorded for C=CCC(OC(C)=O)[C@@H]1[C@@H](N(Cc2cccc3ccccc23)C(=O)Cc2ccc(F)cc2)c2cc(OCCCO)ccc2N1C(=O)c1ccc(-c2ccccc2)cc1 (some centres undefined) is above or exactly 0.7.
Result: not met

Task: Kindly determine if composite z-score recorded for C=C(CCCC)C(=O)CC[C@H](OC(=O)c1ccccc1-c1ccccc1C(=O)O)c1ccccc1OCCO is above or exactly 0.7.
Result: not met

----------
composite z-score: recorded values
assaySummary: small-molecule binders of probe aLefty1, primary screen, biochemical, small-molecule microarray, 635/667 nm fluorescence (AID 1153);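 further: score merges spot fluorescence with signal-to-noise ratio from the scanned slide images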
setupConditions: higher = more signal

Known results for compounds:
smilesRecord	composite z-score
C=CCNC(=O)[C@H]1[C@@H]2C(=O)O[C@@H](c3ccccc3)[C@@H](c3ccccc3)N2[C@@H](c2ccc(O)cc2)[C@]12C(=O)N(C(=O)OCCOC)c1ccc(C#CCC(C(=O)OC)C(=O)OC)cc12	0.139
C=C/C=C/[C@@H]1C(=C)CN([C@@H](Cc2ccccc2)C(=O)OC)[C@H]1[C@@H](O)Cc1ccccc1	-0.0601

Now consider the entry below.
GET /value?item= CC(C)(C)OC(=O)CC[C@]12N=C(c3ccc(OCCCO)cc3)O[C@H]1c1ccccc1N(Cc1ccccc1)C2=O &field=composite z-score returns 0.848

----------
composite z-score: recorded values
Tested on: glycogen synthase kinase-3 (GSK3A per assay name; protocol says GSK3B)
assaySummary: GSK3 binders on small-molecule microarrays, primary screen, biochemical, small-molecule microarray, 635 nm fluorescence, GSK3A (AID 1103); further: the record names both GSK3A and GSK3B
setupConditions: small-molecule microarray binding, fluorescence 635 nm; higher = more signal
Answer with the value's number alone.

smilesRecord	testSystem	composite z-score
O=C(O)[C@@H]1C[C@@H]2C(=O)N3CCC[C@H]3C(=O)N2[C@@H]1c1cccc(OCCO)c1	glycogen synthase kinase-3 (GSK3A per assay name; protocol says GSK3B)	1.44

GET /value?item= C=C(COC)C(=O)CC[C@H](OC(=O)c1cccnc1)c1ccc(CO)o1 &field=composite z-score returns 0.596

GET /value?item= NC(=O)[C@H]1[C@@H]2C(=O)O[C@@H](c3ccccc3)[C@@H](c3ccccc3)N2[C@@H](c2ccc(O)cc2)[C@]12C(=O)Nc1ccccc12 &field=composite z-score returns -1.69

----------
composite z-score: recorded values
Test system: Wnt5a (protein binding on small-molecule microarray)
assaySummary: Wnt5a binders on small-molecule microarray, primary screen, biophysical, 635/667 nm fluorescence (AID 1142);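 further: fluorescence read at 667 nm with signal to noise per printed feature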
setupConditions: 635 nm fluorescence, higher = more signal

Known results for compounds:
compound	composite z-score
CC(C)[C@H]1NC(=O)[C@@]23C(=O)N[C@@H](Cc4ccccc4)C2[C@H](C)[C@@]2(C)O[C@H]2C3/C=C/CCC/C=C/CNC(=O)[C@H](Cc2ccccc2)NC1=O (some centres undefined)	-0.178
CCCCC=C[C@@H](NC(=O)c1ccccc1)c1ccccc1	-0.275
CN1C(=O)C2C(C1=O)C1C=C(CCCO)C2C(c2cccs2)N1Cc1cc2c(cc1Br)OCO2 (centres undefined)	0.418

Now consider the entry below.
For CO[C@H]1O[C@H](CO)[C@@H](OC(=O)Nc2ccc(C#N)cc2)[C@@H]2OC(=O)[C@H](Cc3cccc(Br)c3)C/C=C/C[C@@H](Cc3cccc(Br)c3)C(=O)O[C@@H]12 on Wnt5a (protein binding on small-molecule microarray), measured composite z-score was 0.563

----------
assaySummary: anti-His antibody binders, primary screen, artefact control for SMM control protein annotation, biochemical, small-molecule microarray, 635 nm fluorescence (AID 1128);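 further: score merges feature fluorescence with signal-to-noise for each printed compound spot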
setupConditions: anti-His Alexa647 antibody binding, higher = more signal
Give Yes when the value for composite z-score is at least 0.4. Give No when it is less.

compound	categoryLabel
CCCCCCCCCCC(O)C1C=CC2C(=O)N(C)C(=O)C2N1Nc1cc(OC)c(OC)c(OC)c1 (stereo unspecified)	No

Task: Kindly determine if composite z-score recorded for COC(=O)C(CC#Cc1ccc2c(c1)[C@]1(C(=O)N2)[C@H](c2ccc(O)cc2)N2[C@H](c3ccccc3)[C@H](c3ccccc3)OC(=O)[C@H]2[C@@H]1C(=O)N1CCCCCCC1)C(=O)OC is above or exactly 0.4.
Result: Yes

Task: Kindly determine if composite z-score recorded for C[C@]1(C(=O)NCCN2CCOCC2)c2ccccc2C(=O)N(Cc2cc(F)cc(C(F)(F)F)c2)[C@H]1c1ccc(CO)cc1 is above or exactly 0.4.
Result: Yes

Task: Kindly determine if composite z-score recorded for O=C1[C@@]23C=C(Br)[C@H](C[C@@H]2COC3)[C@@]12CO2 is above or exactly 0.4.
Result: No

Numbers sourced from PubChem BioAssay.
